Source: PubChem BioAssay (NCI)

system: XF 498 CNS; assay: NCI tumour cell line growth inhibition, 48 h
RESULT TYPE: TGI

# annotated cases, reported TGI shown
{"columns": ["COMPOUND", "TGI"],
 "data": [
  ["CC1=Nc2ccccc2S/C1=C(/C)NNC(=O)C(N)=O", "> 100 µM"],
  ["CC1=C(Oc2ccccc2)C(CCC(=O)O)c2c(O)cc(Cl)c(O)c21 (stereo unspecified)", "> 100 µM"],
  ["Cc1nc(N)nc(N)c1-c1ccc(Cl)c(Cl)c1", "> 100 µM"]
]}

Now examine the next entry.
What value of TGI has been reported for the following compound? O=[N+]([O-])C1C2C=CC(C2)[C@H]1c1ccco1 (stereo partly specified)
> 100 µM
